PROCEDURE SUMMARY: NCI Yeast Anticancer Drug Screen. Data for the cln2 rad14 strain (AID 165)
EXPERIMENTAL CONTEXT: S. cerevisiae cln2 rad14 strain, at 50.0 µM
About 79,000 compounds went through this panel and 15% of them were active in at least one assay; those are over-represented in the sample as a whole. Active and inactive are the calls of the source. No stated cut-off is given here; in the data, active means growth inhibition above about 70%; inactive means the rest.
Labels: y = active, n = inactive

molecule=CCCCCCCCCCCCOC(=O)C[n+]1cccc(C(=O)Nc2ccc(Cl)cc2)c1 group_label=y
molecule="NC(CCC(=O)NC(CS(=O)(=O)O)C(=O)O)C(=O)O (stereo not given)" group_label=y
molecule=O=C(Cc1ccccc1)c1ccc(O)c(F)c1 group_label=y
molecule=Clc1ccc2c(NCCCCCCNc3ccnc4cc(Cl)ccc34)ccnc2c1 group_label=y
molecule="CC(=O)OC1C(C)OC(OC(=O)C2CCC3C(C2)OC2(CC(OC(=O)/C=C/c4ccccc4)C(C)CO2)C32CO2)C(OC2OC(C)C(O)C(OC(C)=O)C2O)C1O (stereo not given)" group_label=y
molecule=CS/C(N)=N/NC(=O)CCC(=O)Nc1cc(Cl)c(Cl)cc1Cl group_label=n
molecule=CCOC(=O)/C=C(\C)OCC group_label=y
molecule=COc1ccc(C(=O)Oc2c(Br)cc(Br)cc2Br)cc1 group_label=n
molecule=O=CNc1ccc2c(c1)Cc1cc(NC=O)ccc1-2 group_label=n
molecule="Cc1ccc(C)c(NC(=O)CCC(=O)C(C#N)c2cccc3ccccc23)c1 (stereo not given)" group_label=n
molecule=O=S(=O)(O)c1ccc(O)c2cc(Nc3ccccc3)ccc12 group_label=n
molecule=OCc1ccc(OCc2ccccc2)c(OCc2ccccc2)c1 group_label=y
molecule=O=C1Nc2ccccc2NC(=O)C(=C(c2ccccc2)c2ccccc2)C1=C(c1ccccc1)c1ccccc1 group_label=y
molecule="C#CC(NCCC(C)CC(C)(C)C)C(C)C (stereo not given)" group_label=n
molecule=Clc1cccc(N2CCN(c3c4c(nc5ccccc35)CCCCC4)CC2)c1 group_label=y
molecule=CCN(CC)CCOC(=O)Cc1cccc2c(=O)cc(-c3cccs3)oc12 group_label=n
molecule=CC(=O)O[C@H]1CC[C@H]2[C@@H]3CCc4cc(O)c(I)cc4[C@H]3CC[C@]12C group_label=n
molecule=S=C(N/N=C1\C=Cc2ccccc2C1)N/N=C1\C=Cc2ccccc2C1 group_label=n
molecule=O=C(O)c1cc2cc3ccccc3cc2cc1O group_label=n
molecule=COc1cc(/C=C(\C#N)c2ccc([N+](=O)[O-])cc2)ccc1O group_label=n
molecule="CCC1(c2ccc(N3C(=O)c4ccccc4C3=O)cc2)CCC(=O)NC1=O (stereo not given)" group_label=n
molecule=O=[N+]([O-])c1ccc2c(N=Nc3ccc4ccccc4c3O)c(O)cc(S(=O)(=O)O)c2c1 group_label=n
molecule=Cc1[nH]nc(-c2ccon2)c1N=O group_label=n
molecule="CN(C)c1ccc(C(=C2C=CC(=[N+](C)C)C=C2)c2ccc(N(C)C)cc2)cc1 (tested in a mixture with another compound)" group_label=y
molecule=ClC1=C(Cl)C2c3ccccc3C1c1ccccc12 group_label=n

* * *

PROCEDURE SUMMARY: NCI Yeast Anticancer Drug Screen. Data for the sgs1 mgt1 strain (AID 161)
EXPERIMENTAL CONTEXT: S. cerevisiae sgs1 mgt1 strain, at 50.0 µM (retest, dose inferred, filed as 5.0)
Experimental: Growth inhibition of yeast strains with defined genetic alterations is measured as a screen for potential anti-cancer activity. Selected strains with alterations in DNA damage repair or cell cycle control were exposed to compounds and growth inhibition was measured relative to vehicle treated controls. The strain used in this assay is sgs1 mgt1
Compounds without any hit were thinned out: in the full panel of roughly 79,000, 15% have a hit. Active and inactive are the calls of the source. Rule as the data show it: active = growth inhibition above about 70%; inactive = the rest.
Labels: t (active), f (inactive)

molecule="COc1ccc(C2C3=C(CCCC3=O)Oc3cc4c(cc32)OCO4)cc1 (stereo not drawn)" group_label=f
molecule=Cc1c(C)n(-c2ccccc2)c2nc(S(C)(=O)=O)nc(S(C)(=O)=O)c12 group_label=t
molecule=OCCOCCO[P+]1(OCCOCCO)n2c3ccc2C(c2ccccc2)=C2C=CC(=N2)C(c2ccccc2)=c2ccc(n21)=C(c1ccccc1)C1=NC(=C3c2ccccc2)C=C1 group_label=t
molecule="CC(=O)OC1(c2ccccc2)N=C(c2ccccc2)N=C1c1ccccc1 (stereo not drawn)" group_label=f
molecule=CSc1cc(C(=O)O)nc(N)n1 group_label=f
molecule="CCCCCCCCCCCCCCCC[N+](C)(CCO)Cc1cnc[nH]1 (stereo not drawn)" group_label=t
molecule=O=c1[nH]c(=S)[nH]c(-c2ccccc2)c1Cc1c(O)ccc2ccccc12 group_label=f
molecule=C[N+](C)([O-])CCOc1cc2c(c3ccccc13)-c1ccccc1C2=O group_label=f
molecule=O=C(O)/C(Cl)=C(\Cl)C(=O)Nc1cccc(C(F)(F)F)c1 group_label=t
molecule=Nc1ncnc2c1c(-c1ccccc1)cn2-c1ccc(Cl)cc1 group_label=f
molecule=O=C1C=CC(=O)N1c1cccc(F)c1 group_label=t
molecule=COc1ccc2c(c1)[n+]([O-])c(-c1ccccc1)c(N)[n+]2[O-] group_label=t
molecule=Nc1cc2c(c[n+](CCCCCCCCCC[n+]3cc4c5ccccc5c(N)cc4c4ccccc43)c3ccccc23)c2ccccc12 group_label=t
molecule=O=S(=O)(O)c1ccc(O)c2cc(Nc3ccccc3)ccc12 group_label=f
molecule=CCOC(=O)C(CCSC)C(=O)OCC group_label=f
molecule="CC1OC2CC(=O)OC2C2=C1C(=O)c1c(O)cccc1C2=O (stereo not drawn)" group_label=t
molecule=Nc1n[n+](-c2ccccc2)no1 group_label=f
molecule=O=[N+]([O-])c1ccc(N=Nc2ccc(O)cc2O)cc1 group_label=t

Values were extracted from PubChem BioAssay (NCI).
